Hey, just so you know, these numbers are from patent US7915291B2.

Below, each entry is listed with its recorded EC50.
test system: HCV replicon in Huh7 cells; experiment: HCV replicon cell-based assay; set-up: species or system HCV strain 1B; settings: Hepatitis C virus, Huh-7; HCV replicon, Huh7 cells; read-out: EC50 range

[
  {
    "compound": "C=C[C@@H]1C[C@]1(NC(=O)[C@@H]1C[C@@H](Oc2nccc3ccccc23)CN1C(=O)[C@@H](NC(=O)Oc1ccc(OC)cc1)C(C)(C)C)C(=O)NS(=O)(=O)C1CC1 [Compound 123]",
    "EC50": "100 to 1000 nM"
  },
  {
    "compound": "CC[C@@H]1C[C@]1(NC(=O)[C@@H]1C[C@@H](Oc2ncc(OC)c3ccccc23)CN1C(=O)[C@@H](NC(=O)OC(C)(C)C)C(C)(C)C)C(=O)NS(=O)(=O)C1CC1 [Compound 291]",
    "EC50": "< 100 nM"
  },
  {
    "compound": "C=C[C@@H]1CC1(NC(=O)[C@@H]1CC(Oc2nccc3cc(OC)ccc23)CN1C(=O)[C@@H](NC(=O)OCc1ccccc1)C(C)(C)C)C(=O)NS(=O)(=O)C1CC1 (stereo partly shown) [Compound 64]",
    "EC50": "< 100 nM"
  },
  {
    "compound": "C=C[C@@H]1C[C@]1(NC(=O)[C@@H]1C[C@@H](Oc2nccc3ccccc23)CN1C(=O)[C@@H](NC(=O)Oc1ccccc1)C(C)(C)C)C(=O)NS(=O)(=O)C1CC1 [Compound 121]",
    "EC50": "100 to 1000 nM"
  },
  {
    "compound": "C=C[C@@H]1C[C@]1(NC(=O)[C@@H]1C[C@@H](Oc2ncc(Cl)c3cc(OC)ccc23)CN1C(=O)[C@@H](NC(=O)OC(C)(C)C)C(C)(C)C)C(=O)NS(=O)(=O)C1CC1 [Compound 278]",
    "EC50": "< 100 nM"
  },
  {
    "compound": "C=CC1C[C@]1(NC(=O)[C@@H]1C[C@@H](Oc2nc(-c3ccncc3)cc3cc(OC)ccc23)CN1C(=O)[C@@H](NC(=O)OC(C)(C)C)C(C)(C)C)C(=O)NS(=O)(=O)C1CC1 (stereo partly shown) [Compound 325]",
    "EC50": "< 100 nM"
  },
  {
    "compound": "C=C[C@@H]1C[C@]1(NC(=O)[C@@H]1C[C@@H](Oc2nccc3cc(OC)ccc23)CN1C(=O)[C@@H](NC(=O)OC(C)(C)C)[C@H](C)O)C(=O)NS(=O)(=O)C1CC1 [Compound 95]",
    "EC50": "100 to 1000 nM"
  },
  {
    "compound": "C=C[C@@H]1C[C@]1(NC(=O)[C@@H]1CC(Oc2nccc3cc(OC)ccc23)CN1C(=O)[C@@H](NC(=O)OC(C)(C)C)C(C)(C)O)C(=O)NS(=O)(=O)C1CC1 (stereo partly shown) [Compound 89]",
    "EC50": "< 100 nM"
  },
  {
    "compound": "C=C[C@@H]1C[C@]1(NC(=O)[C@@H]1C[C@@H](Oc2nc(-c3ccc(N(C)C)cc3)cc3ccccc23)CN1C(=O)[C@@H](NC(=O)OC(C)(C)C)C(C)(C)C)C(=O)NS(=O)(=O)C1CC1 [Compound 28]",
    "EC50": "< 100 nM"
  },
  {
    "compound": "C=C[C@@H]1C[C@]1(NC(=O)[C@@H]1C[C@@H](Oc2cc(C3CC3)nc3cc(OC)ccc23)CN1C(=O)[C@@H](NC(=O)OC(C)(C)C)C(C)(C)C)C(=O)NS(=O)(=O)C1CC1 [Compound 373]",
    "EC50": "< 100 nM"
  }
]
